system: Plasmodium berghei; assay: Screen against P. berghei liver stage (PbLuc), transformed with Luciferase, at 10uM; type: functional, HepG2; details: tested at 10 uM
The whole screen tested about 69,000 compounds, of which about 8,600 (12%) showed an effect of 50% or more. The sample holds strong results, similar compounds and a random draw of the others, so the mix is not that of the screen.
Reported INHIBITION values follow for various compounds
Write the value in % as a bare number.

Solved entries:
* CCN(CC(=O)N(C)C)C(=O)c1nc(C)n(-c2ccccc2Cl)n1 | -28.7
* CC(O)CN1CCC(CNCc2ccc(OC(F)(F)F)cc2)CC1 (stereo unspecified) | 44.7
* CCOCCN1CCN(CCc2ccc3c(c2)CCO3)CC1 | 67.6
* COCC(C)N1CCN(CCc2ccc3c(c2)CCO3)CC1 (stereo unspecified) | 51.9
* CN(CCc1ccc2c(c1)CCO2)C1CCS(=O)(=O)CC1 | 19

We now examine a further compound.
Request: For the compound `CC(C)NC1CCN(CCc2ccc3c(c2)CCO3)CC1` , what INHIBITION is on record?
Response: 35.1
